Test system: mtsABAD HEK293 cells
Assay: Lactate dehydrogenase (LDH) cytotoxicity assay
Type: cell-based, human
Conditions: 50 μM compound
attribute_measured: LDH % Toxicity (50 μM Dose) (%)
The figure you give is taken to be in %; do not add the unit.

Look over these answered cases.
| compound | attribute_measured | quantitative_readout |
| --- | --- | --- |
| CC(C)CN(C(=O)c1ccccc1F)c1cccc(N(C)Cc2cncn2C)c1 [ESC1002199] | LDH % Toxicity (50 μM Dose) | 5.028 |
| COc1ccc(-c2ccccc2[C@@H]2CCCN2C(=O)c2sccc2C)cn1 (single isomer, unassigned) [ESC1002161] | LDH % Toxicity (50 μM Dose) | 4.783 |
| Cc1ccsc1C(=O)N1CCC[C@@H]1c1ccccc1-c1cn[nH]c1 [ESC1002092] | LDH % Toxicity (50 μM Dose) | 4.240 |

Could you now consider this next compound?
The measured LDH % Toxicity (50 μM Dose) associated with CC(C)CN(C(=O)c1cccc2ccccc12)c1cccc(N(C)Cc2cnc[nH]2)c1 [ESC1002172] reads 5.472
